Target: full length SGK1 (Homo sapiens)
Construct: 125 μM full length SGK1 (Life Technologies Part #PR7358A); purchased Life Technologies PR7358A
Sequence (O00141 whole entry): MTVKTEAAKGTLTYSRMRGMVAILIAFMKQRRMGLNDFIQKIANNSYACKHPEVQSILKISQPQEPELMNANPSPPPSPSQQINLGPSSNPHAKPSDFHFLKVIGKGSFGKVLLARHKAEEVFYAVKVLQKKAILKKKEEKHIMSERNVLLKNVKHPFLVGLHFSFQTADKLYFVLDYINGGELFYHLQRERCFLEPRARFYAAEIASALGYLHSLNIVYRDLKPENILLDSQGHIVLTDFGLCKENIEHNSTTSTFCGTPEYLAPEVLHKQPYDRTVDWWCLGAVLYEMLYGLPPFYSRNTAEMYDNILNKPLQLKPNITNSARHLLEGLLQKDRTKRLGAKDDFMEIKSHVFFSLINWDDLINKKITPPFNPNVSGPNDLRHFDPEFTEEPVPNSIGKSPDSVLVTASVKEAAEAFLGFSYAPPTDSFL
Test: SGK1 inhibition Assay A (Caliper LabChip electrophoretic separation of fluorescent peptide substrate and phosphorylated product)
Format: biochemical
Conditions: Assay A; 20 μM ATP, 40 min incubation; read-out: SGK1 IC50
pIC50: −log10 of the molar value. Structures can show the parent of a compound that is named as a salt.
The entries below are paired with their reported pIC50.
value-type: pIC50

compound	reported-measurement
CS(=O)(=O)c1ccc(-c2cc(N3CCCC(NC(=O)c4ccccn4)C3)c3c(N)ncnn23)cc1 (stereo not drawn) [Example 2, TFA]	7.09
COc1cc(-c2cc(N3CCC[C@@H](NC(=O)c4ccc(Cl)s4)C3)c3c(N)ncnn23)cc(C(F)(F)F)n1	6.79
CN(C)CCOc1cc(Cl)sc1C(=O)N[C@@H]1CCCN(c2cc(-c3ccc4ncnn4c3)n3ncnc(N)c23)C1	7.60
CN1CCC(Oc2cc(C3CC3)sc2C(=O)N[C@@H]2CCCN(c3cc(-c4ccc(C#N)nc4)n4ncnc(N)c34)C2)CC1	8.22
Cc1nc(-c2cc(C(=O)N3CC=C(c4cc(N5CCC[C@@H](NC(=O)c6ccc(Cl)s6)C5)c5c(N)ncnn45)C3)no2)cs1	7.00
COC(=O)N1CC=C(c2cc(N3CCC[C@@H](NC(=O)c4sc5ccccc5c4OC4CCN(CCO)CC4)C3)c3c(N)ncnn23)C1	8.70
Nc1ncnn2c(C3=CCN(C(=O)C4CCCS(=O)(=O)C4)C3)cc(N3CCC[C@@H](NC(=O)c4ccc(Cl)s4)C3)c12 (stereo partly drawn)	7.92
Cc1cc(C(=O)N[C@@H]2CCCN(c3cc(-c4ccc(S(C)(=O)=O)cc4)n4ncnc(N)c34)C2)cc(C)n1	7.68
CS(=O)(=O)c1ccc(-c2cc(N3CCCC(NC(=O)c4cccnn4)C3)c3c(N)ncnn23)cc1 (stereo not drawn) [Example 3, TFA]	6.62
Nc1ncnn2c(-c3cn(CC(=O)O)nn3)cc(N3CCC[C@@H](NC(=O)c4ccc(Cl)s4)C3)c12	6.67
CS(=O)(=O)N1CC=C(c2cc(N3CCC[C@@H](NC(=O)c4cccs4)C3)c3c(N)ncnn23)C1 [Example 135, TFA]	8.52
CC(=O)N1CC=C(c2cc(N3CCC[C@@H](NC(=O)c4sc(C5CC5)cc4OCCN(C)C)C3)c3c(N)ncnn23)C1	7.74
C#Cc1cc(N2CCC[C@@H](NC(=O)c3ccc(Cl)s3)C2)c2c(N)ncnn12	6.95
CC(C)c1cc(C(=O)N[C@@H]2CCCN(c3cc(-c4ccnc(C(F)F)c4)n4ncnc(N)c34)C2)[nH]n1	7.57
CC(=O)N1CC=C(c2cc(N3CCC[C@@H](NC(=O)c4ccnc(N(C)C)c4)C3)c3c(N)ncnn23)C1	7.41
CC(C)(C)OC(=O)N1CCC(Oc2c(C(=O)N[C@@H]3CCCN(c4cc(-c5ccc(C#N)nc5)n5ncnc(N)c45)C3)sc3ccccc23)CC1	7.24
N#Cc1ccc(-c2cc(N3CCC[C@@H](NC(=O)c4ccc(Cl)s4)C3)c3c(N)ncnn23)cc1F [Example 243, TFA]	9.00
Nc1ncnn2c(-c3ccc(=O)n(CC(F)F)c3)cc(N3CCC[C@@H](NC(=O)c4cc5ccccc5[nH]4)C3)c12	8.05
Cn1cc(-c2cc(N3CCC[C@@H](NC(=O)c4ccc(Cl)s4)C3)c3c(N)ncnn23)cn1 [Example 216, TFA]	7.59
Cc1cc(-c2cc(N3CCC[C@@H](NC(=O)c4sc(Cl)cc4OCCN(C)C)C3)c3c(N)ncnn23)cc(C(F)F)n1	8.00
Nc1ncnn2c(C3=CCN(C(=O)[C@H]4C[C@@H]4F)C3)cc(N3CCC[C@@H](NC(=O)c4sc(Cl)cc4OCCN4CCOCC4)C3)c12 (relative stereo)	7.74
CN(C)CCOc1cc(C(F)F)sc1C(=O)N[C@@H]1CCCN(c2cc(-c3ccc(C#N)nc3)n3ncnc(N)c23)C1	8.52
CC(=O)N1CC=C(c2cc(N3CCC[C@@H](NC(=O)C4CCC(F)(F)C4)C3)c3c(N)ncnn23)C1 (stereo partly drawn)	5.89
CC(C)(C)OC(=O)CCn1cc(-c2cc(N3CCC[C@@H](NC(=O)c4ccc(Cl)s4)C3)c3c(N)ncnn23)nn1	6.33
CC(=O)N1CC=C(c2cc(N3CCC[C@@H](NC(=O)c4cccc(OCCN5CCN(C)CC5)n4)C3)c3c(N)ncnn23)C1	7.96
CC(=O)N1CC=C(c2cc(N3CCC[C@@H](NC(=O)c4sc(C(F)F)cc4C4=CCN(C)CC4)C3)c3c(N)ncnn23)C1	7.02
CN(C)CCOc1cc(Cl)sc1C(=O)N[C@@H]1CCCN(c2cc(-c3ccc4cnoc4c3)n3ncnc(N)c23)C1	8.52

Provenance of the data: patent US20260250290A1
